# assay_explanation: binders of probe aFGF2 on microarray, primary screen, stem cell growth factor project, biochemical, small-molecule microarray, fluorescence 635/667 (AID 1067);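 note: measures binding of biotinylated aFGF2 protein to printed compounds on slides; z-score merges feature fluorescence and signal-to-noise across triplicate slides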
# measurement_conditions: higher = more signal
endpoint_label: composite z-score
Keep the answer to the number alone.

compound: O=C1NC(=O)C2C1C=CC(C(O)c1ccc(Br)cc1)N2Nc1ccccn1 (stereo not drawn)
composite z-score: 0.0969

compound: CCOC(=O)C[C@H]1[C@H](OC(=O)c2ccc(C(=O)c3ccccc3)cc2)[C@@H](NC(=O)c2ccc3ccccc3c2)c2cc(OCCCO)ccc2N1C(=O)c1ccccc1
composite z-score: -0.0943

compound: COCC(=C=CC[C@H](O)c1cccc(OCCO)c1)C[C@H](O)c1ccccn1
composite z-score: -0.135

compound: C[C@H]1C2=C3C(CC[C@H]4C(OCc5ccc(F)cc5C(F)(F)F)OC[C@](C)([C@@H]34)N(C(=O)OC(C)(C)C)C2)C(CO)C1CO (stereo partly drawn)
composite z-score: 0.0506

compound: COCCOC(=O)N1C(=O)[C@@]2(c3cc(C#CCNC(N)=O)ccc31)[C@H](C(=O)N1CCCCCCC1)[C@H]1C(=O)O[C@H](c3ccccc3)[C@H](c3ccccc3)N1[C@@H]2c1ccc(O)cc1
composite z-score: -0.0557

Specify measured composite z-score for C[C@@H](OCc1ccccc1)C1NC(=O)[C@@]23C(=O)N[C@@H](Cc4ccccc4)C2[C@H](C)[C@@]2(C)O[C@H]2C3/C=C/C/C=C\CNC(=O)CNC1=O (stereo partly drawn) .
-0.132

Specify measured composite z-score for CCOC(=O)C[C@H]1[C@H](OC(=O)Cc2ccc3c(c2)OCO3)[C@@H](NC(=O)Cc2ccc(OC)cc2)c2cc(OCCCO)ccc2N1C(=O)c1ccccc1 .
-0.11

Specify measured composite z-score for O=C1O[C@@H](c2ccccc2)[C@@H](c2ccccc2)N2[C@@H](c3ccccc3OCCO)[C@]3(C(=O)Nc4ccc(C#CCCO)cc43)[C@@H](C(=O)Nc3nc4ccccc4s3)[C@H]12 .
-0.0165

Specify measured composite z-score for COC(=O)[C@@]1(Cc2ccc(F)cc2)[C@H]2c3cc(C(=O)N4CCCC4)n(CCF)c3C[C@H]2CN1C(=O)c1ccccc1 .
0.856

Specify measured composite z-score for C[C@H]1ON(c2ccc(C(=O)OC(C)(C)C)cc2)[C@@H](c2ccc(O)cc2)[C@@H]1C(=O)N1C(=O)OC[C@@H]1c1ccccc1 .
-0.117

Specify measured composite z-score for COCCCNC(=O)[C@]1(CCC(=O)OC(C)(C)C)N=C(c2ccc(OCCCO)cc2)O[C@@H]1c1ccccc1 .
0.0629
